Sourced from PubChem BioAssay (NCATS)

test: MultiTox-Fluor Cytotoxicity Assay - LYMP1-002 - Dead Cells (AID 960); conditions: LYMP1-002 lymphoblastoid cells, dead-cell protease fluorescence; series mostly up to 46.1 µM; further: nearly all actives have a fitted effect of over 60% in size
Results filed as inconclusive are left out. Calls of active or inactive are those of the source. The call rests on the fitted dose curve; in most records, active means well fitted cell-killing curve with a large enough effect; inconclusive means small, poorly fitted or top-dose-only effect, or effect the other way; inactive means no such curve, though single readings can be large or run the other way.
Possible outcomes: active, inactive

1) Nc1ccn([C@H]2CS[C@@H](CO)O2)c(=O)n1 = inactive
2) CC(C)(C)NC(=O)[C@@H]1C[C@@H]2CCCC[C@@H]2CN1C[C@@H](O)[C@H](Cc1ccccc1)NC(=O)[C@H](CC(N)=O)NC(=O)c1ccc2ccccc2n1 = active
3) IC(I)I = inactive
4) CCOC(C)=O = inactive
5) O=C(O)CCC(=O)C(=O)O = inactive
